# pKi per entry for Thymidylate synthase (Escherichia coli K-12, UniProt P0A884)
pKi: −log10 of the molar value.
Measured metric: pKi

Compound | Relation qualifier | Reported result
Nc1ccc2c3c(cccc13)C(=O)OC2=O | < | 3.82
O=C1OC(=O)c2ccc(S(=O)(=O)O)c3cccc1c23 | < | 3.11
O=C1OC(=O)c2cc([N+](=O)[O-])cc3cccc1c23 | < | 3.71
O=C(Nc1cc2c3c(cccc3c1)C(=O)OC2=O)c1ccc([N+](=O)[O-])o1 | = | 5.17
O=C1OC(=O)c2cc(NS(=O)(=O)c3cccs3)cc3cccc1c23 | = | 5.66
O=C(Nc1cc2c3c(cccc3c1)C(=O)OC2=O)c1ccc(C(F)(F)F)cc1 | = | 5.19
O=C1OC(c2ccccc2)(c2ccccc2)c2cccc3cccc1c23 | < | 3.53
Nc1cc2c3c(cccc3c1)C(=O)OC2=O | = | 5.17
O=C1OC(=O)c2cccc3cccc1c23 [1,8-NAPHTHALIC ANHYDRIDE] | < | 3.53
COC(=O)CCC(=O)Nc1cc2c3c(cccc3c1)C(=O)OC2=O | = | 5.15
O=C(Nc1cc2c3c(cccc3c1)C(=O)OC2=O)c1sc2ccccc2c1Cl | = | 5.19

---

Collected Ki values appear next to each entry.
Target sequence: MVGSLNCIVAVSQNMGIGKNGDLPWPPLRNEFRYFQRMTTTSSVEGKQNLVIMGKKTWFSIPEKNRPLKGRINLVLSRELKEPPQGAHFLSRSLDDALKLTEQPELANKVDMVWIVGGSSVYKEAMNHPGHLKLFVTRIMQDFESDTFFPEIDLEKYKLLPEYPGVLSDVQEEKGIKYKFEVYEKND
Measured metric: Ki

Record smiles | Reported result
Cc1onc(-c2c(F)cccc2Cl)c1C(=O)Nc1cc2c3c(cccc3c1)C(=O)OC2=O | > 332 µM
O=C(Nc1cc2c3c(cccc3c1)C(=O)OC2=O)c1sc2ccccc2c1Cl | > 55 µM

---

Quick record: pKi, Thymidylate synthase (Escherichia coli K-12, UniProt P0A884).
pKi: −log10 of the molar value.
Measured metric: pKi

Record smiles | System | Measured metric | Reported result
O=C1Sc2cccc3cccc1c23 | Thymidylate synthase (Escherichia coli K-12, UniProt P0A884) | pKi | < 3.71
N#CC(C#N)=c1c(=O)c2cccc3cccc1c32 | Thymidylate synthase (Escherichia coli K-12, UniProt P0A884) | pKi | < 3.53
O=C1/C(=N/c2ccccc2)c2cccc3cccc1c23 | Thymidylate synthase (Escherichia coli K-12, UniProt P0A884) | pKi | < 3.53
CCOC(=O)CSc1ccc2c3c(cccc13)C(=O)OC2=O | Thymidylate synthase (Escherichia coli K-12, UniProt P0A884) | pKi | < 3.23
